Test system: HL-60(TB) leukemia
Experiment: NCI tumour cell line growth inhibition, 48 h
Reported endpoint: TGI

These recorded examples may help you get a feel for the data.
| Compound | Tested system | TGI |
| --- | --- | --- |
| O=C1C(=Cc2ccc([N+](=O)[O-])o2)C(=O)N(CCc2ccccc2)S(=O)(=O)N1CCc1ccccc1 | HL-60(TB) leukemia | 41.9 µM |
| COc1cc(O)c2c(=O)c(OC)c(-c3ccc(OC)c(OC)c3)oc2c1.[Sn] | HL-60(TB) leukemia | > 100 µM |

Enquiry: Returns the measured TGI for the input compound. Input: Cc1cc(N(CCC#N)CCC#N)ccc1CC1N=C(c2ccccc2)OC1=O (configuration not stated)
Return: > 100 µM

Enquiry: Further, for O=C(NCCCl)NCc1ccccc1 ?
Return: > 100 µM

Enquiry: Further, for CC(=O)OC12OC(C)(C3C(=O)N(c4ccccc4)C(=O)C31)N(c1ccccc1)C2=O (configuration not stated) ?
Return: > 100 µM

Enquiry: Further, for COc1cccc(/C=C2\CCc3ccccc3C2=O)c1 ?
Return: 67.4 µM

Enquiry: Further, for COc1cc(OC)c(/C=C/C(=O)c2c(O)cc(OC)c(C3CCN(C)CC3)c2OC)c(OC)c1 ?
Return: 3.99 µM

Enquiry: Further, for CN(C)C=Nc1c2c(nc3ccccc13)CCCC2 ?
Return: > 100 µM

Enquiry: Further, for N#CC(C#N)C1CN2CCC1CC2 (configuration not stated) ?
Return: > 100 µM

Enquiry: Further, for O=C(CC(=O)N1N=C(c2ccccc2)C(N=Nc2ccccc2Cl)C1=O)Nc1ccccc1Cl (configuration not stated) ?
Return: 25.9 µM

----------
TGI for assorted compounds
Test system: MOLT-4 leukemia
Test: NCI tumour cell line growth inhibition, 48 h

Enquiry: Returns the measured TGI for the input compound. Input: COc1cccc(/C=N/NC(=O)CN(C)C)c1O
Return: > 100 µM

Enquiry: Further, for COc1c(C)c(C/C=C(\C)CCCCO)c(OC)c2ccccc12 ?
Return: 43.1 µM

----------
GI50 for assorted compounds
Test system: UACC-62 melanoma
Experiment: NCI tumour cell line growth inhibition, 48 h

These recorded examples may help you get a feel for the data.
| Compound | GI50 |
| --- | --- |
| COc1ccc(/C=C/C(=O)c2ccccc2)cc1OC | 11700 nM |
| O=C(c1ccccc1)c1c2n(c3c1cc(O)c1ccccc13)CCN2 | 5150 nM |

Enquiry: Tell me reported GI50 for Cc1cc2nc3c4cc([N+](=O)[O-])ccc4n(CCN(C)C)c3nc2cc1C , tested with UACC-62 melanoma.
Return: 594 nM

Enquiry: Further, for Clc1ccc(Nc2ncnc3c2sc2ncccc23)c(Cl)c1 ?
Return: 27.9 nM

Enquiry: Further, for C=C(C)[C@@H]1CC[C@]2(C(=O)N3CCN(C)CC3)CC[C@]3(C)[C@H](CC[C@@H]4[C@@]5(C)CC[C@H](O)C(C)(C)[C@@H]5CC[C@]43C)[C@@H]12 ?
Return: 1720 nM

Enquiry: Further, for O=C1Nc2c(ccc(Cl)c2Cl)/C1=C\c1cc(C(F)(F)F)cc(C(F)(F)F)c1 ?
Return: 1770 nM

Enquiry: Further, for CCCCCCn1c2c(c3c(O)cccc31)C(=O)c1ccccc1-2 ?
Return: 17500 nM

Enquiry: Further, for COC1/C=C/OC2(C)Oc3c(C)c(O)c4c(O)c(c(C=NOC(c5ccccc5)c5ccccc5)c(O)c4c3C2=O)NC(=O)/C(C)=C/C=C/C(C)C(O)C(C)C(O)C(C)C(OC(C)=O)C1C (stereo not drawn) ?
Return: 935 nM

----------
TGI for assorted compounds
Test system: HL-60(TB) leukemia
Assay: NCI tumour cell line growth inhibition, 48 h

These recorded examples may help you get a feel for the data.
| Cpd smiles | TGI |
| --- | --- |
| CCSc1[nH]c(NC(=NC(C)C)NC(=O)c2ccccc2)c(C(N)=O)c1C(N)=O | > 10 µM |
| c1cnc2nc3n(c2c1)CSC3 | > 100 µM |
| C1C[S][Ge]2([S]CCS1)[S]CCSCC[S]2 | > 100 µM |

Enquiry: Tell me reported TGI for Cc1csc2c(=O)n(COCc3ccccc3)c(=O)[nH]c12 , tested with HL-60(TB) leukemia.
Return: > 100 µM

Enquiry: Further, for NNC(=S)NN/C=C(\C=Nc1ccccc1)[N+](=O)[O-] ?
Return: > 100 µM

----------
System: DLD-1 colon
Experiment: NCI tumour cell line growth inhibition, 48 h
Reported endpoint: TGI

These recorded examples may help you get a feel for the data.
| Compound | Reported endpoint | Reported result |
| --- | --- | --- |
| COc1cccc2c1C(=O)c1c(O)c3c(c(O)c1C2=O)CC(O)(C(C)=O)CC3O (stereo not given) | TGI | 40.9 µM |
| COc1cc(CC(=O)c2cc3c(cc2-c2ccccc2)OCO3)cc(OC)c1OC | TGI | > 100 µM |

Enquiry: Tell me reported TGI for COc1ccc(/C=C(\C2=NC(=O)CS2)c2nc3ccccc3[nH]2)cc1 , tested with DLD-1 colon.
Return: > 100 µM

Enquiry: Further, for COC(=O)Cc1nn2c(nc1=O)sc1ccc3ccccc3c12 ?
Return: > 100 µM

Enquiry: Further, for COC(=O)CC1NC(=O)C1C(C)(OC)OC (stereo not given) ?
Return: > 100 µM

----------
TGI for assorted molecules
System: OVCAR-3 ovarian
Assay: NCI tumour cell line growth inhibition, 48 h

Enquiry: Returns the measured TGI for the input molecule. Input: Cc1cc(=O)[nH]c(NNC(C#N)c2ccc(N(C)C)cc2)n1 (stereo unspecified)
Return: > 100 µM

Enquiry: Further, for CCOC(=O)Cn1c(=O)[nH]c(=O)c2[nH]cnc21 ?
Return: > 100 µM

Enquiry: Further, for CCOC(=O)[C@H](CO)Nc1c(O)c2c(c(O)c1Cl)C(=O)C=CC2=O ?
Return: > 10 µM

Enquiry: Further, for Nc1ccn(CCCC(c2ccccc2)P(=O)(O)O)c(=O)n1 (stereo unspecified) ?
Return: > 100 µM

Enquiry: Further, for COc1cc(CC(=O)c2cc3c(cc2-c2ccccc2)OCO3)cc(OC)c1OC ?
Return: > 100 µM

Enquiry: Further, for Cc1cc(C)c(C2=NO[C@@H]3C(=O)N(c4ccc(Cc5ccc(N6C(=O)[C@H]7C(c8c(C)cc(C)cc8C)=NO[C@H]7C6=O)cc5)cc4)C(=O)[C@H]23)c(C)c1 ?
Return: > 100 µM

----------
Tested on: CCRF-CEM leukemia
Assay: NCI tumour cell line growth inhibition, 48 h
Reported endpoint: TGI

| Molecule | TGI |
| --- | --- |
| COc1ccc2c(c1)C(=O)c1c-2c(OCCN2CCCCC2)nc2ccc(OC)cc12 | 2.66 µM |
| C=CCCCC(O)c1ccc(C(O)c2cnc3ccccc3c2)o1 (stereo not drawn) | 86.7 µM |
| N#CC(C#N)C1CN2CCC1CC2 (stereo not drawn) | > 100 µM |
| O=C(O)c1ccccc1C1c2ccc(Cl)cc2Oc2cc(Cl)ccc21 | > 100 µM |
| COC(=O)c1cc2c(nc1C)-c1ccccc1OS2(=O)=O | > 100 µM |

Enquiry: Returns the measured TGI for the input molecule. Input: CC(O)c1ccc(C(O)/C(=N\NC(=O)c2ccncc2)c2nc3ccc([N+](=O)[O-])cc3[nH]c2=O)cc1 (stereo not drawn)
Return: > 100 µM

Enquiry: Further, for N/C(=N\C(N)=N\c1nc2ccccc2s1)c1ccnc(Br)c1 ?
Return: > 100 µM

Enquiry: Further, for COc1ccc(OC)c(-c2cc(=O)c3cc4c(cc3[nH]2)OCO4)c1 ?
Return: > 100 µM

----------
Tested on: SW-620 colon
Assay: NCI tumour cell line growth inhibition, 48 h
Reported endpoint: TGI

| Molecule | Reported result |
| --- | --- |
| O=C(CBr)NCCc1c[nH]c2ccccc12 | 7.71 µM |

Enquiry: Tell me reported TGI for O=C(O)CCCc1cc2c(s1)-c1cccc3cccc-2c13 , tested with SW-620 colon.
Return: > 100 µM

Enquiry: Further, for O=C(NCCCl)NCc1ccccc1 ?
Return: > 100 µM

Enquiry: Further, for C=CC(=C)CCC(Br)C(C)(C)Cl (stereo not given) ?
Return: > 100 µM

Enquiry: Further, for COC(=O)Cc1nn2c(nc1=O)sc1ccc3ccccc3c12 ?
Return: > 100 µM

Enquiry: Further, for COc1ccc(C=NCCCN=Cc2ccc(OC)cc2O)c(O)c1 ?
Return: > 100 µM

Enquiry: Further, for CC(=O)Nc1ccc(C(=O)n2[nH]c(C)c(/C=C3\C(=O)C=Cc4ccccc43)c2=O)cc1 ?
Return: > 100 µM

Enquiry: Further, for CC1(C)OC2OC(C(=O)c3ccccc3)C3OC(C)(C)OC3C2O1 (stereo not given) ?
Return: > 100 µM

Enquiry: Further, for Cc1cc(C)c(C(=O)/C(=C/c2ccccc2)c2ccccc2)c(C)c1 ?
Return: > 100 µM
